EXPERIMENTAL SYSTEM: Caspase-1 (Mus musculus)
PROTOCOL DESCRIPTION: Inhibitory concentration of compound required against Caspase-1 compared to acylated dipeptides
Kindly supply the reported pIC50 values for the records listed here.
On this scale, pIC50 is minus log10 of a concentration expressed in M (mol/L).

response.value for CC(C)C[C@H](NC(=O)[C@H](Cc1ccccc1)NC(=O)OCc1ccccc1)C(=O)N[C@H]1CC(=O)OC1O (some centres undefined) (field: pIC50) = 7.37

response.value for CC(C)C[C@H](NC(=O)[C@H](CCC(=O)O)NC(=O)OCc1ccccc1)C(=O)N[C@H]1CC(=O)OC1O (some centres undefined) (field: pIC50) = 8.19

response.value for CC(C)C[C@H](NC(=O)COc1ccc2ccccc2c1)C(=O)N[C@H]1CC(=O)OC1O (some centres undefined) (field: pIC50) = 5.00

response.value for CC(=O)N[C@@H](C(=O)O)C(=O)N[C@@H](CCC(=O)O)C(=O)N[C@H](C(=O)N[C@H]1CC(=O)OC1O)C(C)C (some centres undefined) (field: pIC50) = 7.30
